# System: SW-620 colon
# MEASUREMENT PROTOCOL: NCI-60 one-dose screen, 48 h
# SETUP CONDITIONS: 10 µM unless noted
About 83,000 compounds went through this panel and 20% of them were active in at least one assay; those are over-represented in the sample as a whole. Calls of active or inactive are those of the source. How the source made its calls: active means growth percent below 10; inactive means the rest.
Classes used: class 1 for active, class 0 for inactive

| COMPOUND | TARGET OF ASSAY | LABEL |
| --- | --- | --- |
| Cc1nn(-c2ccccc2)c2c1C(c1ccc([N+](=O)[O-])cc1)C(C#N)=C(N)O2 (stereo unspecified) | SW-620 colon | class 0 |
| CCCCCCNCc1cc(C(C)(C)C)cc(CNCCCCCC)c1O | SW-620 colon | class 1 |
| COc1ccc2cc(-c3ccc(C(=O)NN)c(C)n3)ccc2c1 | SW-620 colon | class 0 |
| Cn1ncc2c(Nc3ccc(Br)cc3)nc(Nc3ccc(Br)cc3)nc21 | SW-620 colon | class 0 |
| CCc1nc2ccccc2[nH]1 | SW-620 colon | class 0 |
| CC(c1ccc(-n2cccn2)cc1)c1cnc(N2CCc3ccc(C(N)=O)cc3C2)s1 (stereo unspecified) | SW-620 colon | class 0 |
| CCOC(=O)c1c(C)nc2c(c1N)/C(=C/c1ccc(OC)cc1)C(=O)N2Cc1ccc(F)cc1 | SW-620 colon | class 1 |
| Cc1cc(N(CCCNc2ccnc3cc(Cl)ccc23)Cc2ccccn2)nc(N2CCOCC2)n1 | SW-620 colon | class 0 |
| Nc1nc(I)c2ncn(C3OC(CO)C(O)C3O)c2n1 (stereo unspecified) | SW-620 colon | class 0 |
| CCN(CC)CCCNC(=O)c1ccc(N)cc1 | SW-620 colon | class 0 |
| Cc1nc(Nc2ccc(NC(=S)Nc3ccccc3)cc2)nc2nc(SCc3ccccc3)[nH]c(=O)c12 | SW-620 colon | class 0 |
| CC(C)c1ccc(NC(=O)Cc2ccc(Nc3ncnc4cc(-c5cnn(CCN(C)C)c5)ccc34)cc2)cc1 | SW-620 colon | class 1 |
| N#Cc1cnn2c(-c3ccc(Cl)cc3)nc(NC3CC3)nc12 | SW-620 colon | class 0 |
| CC1(C)CC(=O)c2c(ccc(C(=O)C[C@H](N)CO)c2N)O1 | SW-620 colon | class 1 |
| COc1ccc(-c2cc(-c3ccc(Nc4nc(Nc5ccccc5)nc(Nc5ccc(Cl)cc5)n4)cc3)nc(N)n2)cc1 | SW-620 colon | class 0 |
| CCOC(=O)c1c(C)nc2c(c1N)/C(=C/c1cc(OC)c(OC)c(OC)c1)C(=O)N2c1ccc(OC)cc1 | SW-620 colon | class 0 |
| CN1CCN(CCCOc2ccc3nc(Nc4cc(Cl)cc(Cl)c4)ccc3c2)CC1 | SW-620 colon | class 1 |
| COc1ccc(/C=C2\C=C(c3ccccc3)N(CCc3ccccc3)C2=O)cc1OC | SW-620 colon | class 0 |
| Cc1cc(C(c2ccccc2)c2ccccc2)ccc1NS(=O)(=O)c1ccccc1 | SW-620 colon | class 0 |
| CCn1nc(C#Cc2c(C)ccc3c(Nc4ccc(Cl)cc4)nccc23)c2c(N)ncnc21 | SW-620 colon | class 0 |
| Cc1ccc2c(n1)C(=O)C(Oc1ccc(F)cc1)=CC2=O | SW-620 colon | class 0 |

From: PubChem BioAssay (NCI)
